Experimental system: human orexin type 2 receptor (hOX2R) (Homo sapiens, UniProt O43614)
Construct: expressed in transfected cells
Sequence (O43614 1-444): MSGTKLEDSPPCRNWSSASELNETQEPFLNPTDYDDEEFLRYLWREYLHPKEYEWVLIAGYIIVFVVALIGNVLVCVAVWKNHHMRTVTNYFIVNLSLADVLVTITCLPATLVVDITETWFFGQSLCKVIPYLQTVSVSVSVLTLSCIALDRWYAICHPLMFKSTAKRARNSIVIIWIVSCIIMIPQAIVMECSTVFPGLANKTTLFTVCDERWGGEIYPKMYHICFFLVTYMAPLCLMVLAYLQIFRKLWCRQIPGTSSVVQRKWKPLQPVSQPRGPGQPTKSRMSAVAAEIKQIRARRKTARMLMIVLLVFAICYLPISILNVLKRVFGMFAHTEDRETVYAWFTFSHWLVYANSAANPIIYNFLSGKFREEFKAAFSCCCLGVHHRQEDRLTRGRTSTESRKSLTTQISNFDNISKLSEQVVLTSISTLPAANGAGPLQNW
Experiment notes: Measurement of orexin type 2 receptor agonist activity (FLIPR calcium fluorescence)
Type: cell-based
Run conditions: CHO cells expressing hOX2R, FLIPR calcium fluorescence; read-out: hOx2 pEC50 (converted)
Reported EC50 by item:

The cases that follow already have their EC50 on record.
Compound: CN(C)S(=O)(=O)NC1C(Cc2cccc(-c3ccccc3)c2F)N(C(=O)C2CCC2)CC12CC2 (racemic) [Compound 92]
Recorded value: 1 to 10 nM
//
Compound: CS(=O)(=O)NC1C(Cc2cccc(-c3cc(F)cc(F)c3)c2F)N(C(=O)N2CCC2)CC12CC2 (racemic) [Compound 30]
Recorded value: 0.0794 to 1 nM
//
Compound: CS(=O)(=O)N[C@@H]1[C@H](Cc2cccc(-c3cccc(F)c3)c2)N(C(=O)[C@H]2CCO2)CC12CC2 [Compound 305]
Recorded value: 10 to 100 nM
//
Compound: COC[C@@H](O)C(=O)N1CC2(CC2)[C@H](NS(C)(=O)=O)[C@@H]1Cc1cccc(-c2ccccc2)c1 [Compound 63]
Recorded value: 10 to 100 nM
//
Compound: O=C([C@H]1CCO1)N1CC2(CC2)[C@H](NS(=O)(=O)C(F)F)[C@@H]1Cc1cccc(-c2cccc(F)c2F)c1F [Compound 172]
Recorded value: 1 to 10 nM

Challenge: If you can, please state the reported EC50 value of O=C([C@H]1CCO1)N1CC2(CC2)[C@H](NS(=O)(=O)N2CCC2)[C@@H]1Cc1cccc(-c2ccccc2)c1 [Compound 76] .
Response given: 10 to 100 nM

Challenge: If you can, please state the reported EC50 value of O=C(NCCF)N1CC2(CC2)[C@H](NS(=O)(=O)CF)[C@@H]1Cc1cccc(-c2ccccc2)c1F [Compound 367] .
Response given: 0.0794 to 1 nM

---

Reported EC50 by item:
Experimental system: human orexin type 2 receptor (hOX2R) (Homo sapiens, UniProt O43614)
Construct: expressed in transfected cells
Sequence (O43614 1-444): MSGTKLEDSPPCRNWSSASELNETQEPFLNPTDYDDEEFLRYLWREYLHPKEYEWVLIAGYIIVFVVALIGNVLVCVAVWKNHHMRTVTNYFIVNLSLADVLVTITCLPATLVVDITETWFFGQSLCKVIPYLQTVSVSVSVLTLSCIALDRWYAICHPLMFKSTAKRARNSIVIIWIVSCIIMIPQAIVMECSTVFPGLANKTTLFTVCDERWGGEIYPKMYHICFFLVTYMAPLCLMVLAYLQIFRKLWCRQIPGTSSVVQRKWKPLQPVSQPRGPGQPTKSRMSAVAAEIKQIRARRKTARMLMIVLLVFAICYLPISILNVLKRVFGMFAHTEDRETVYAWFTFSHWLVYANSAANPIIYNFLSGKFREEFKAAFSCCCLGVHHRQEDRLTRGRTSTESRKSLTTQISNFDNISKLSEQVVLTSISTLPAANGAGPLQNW
Experiment notes: Measurement of orexin type 2 receptor agonist activity (FLIPR calcium fluorescence)
Type: cell-based
Run conditions: CHO cells expressing hOX2R, FLIPR calcium fluorescence; read-out: hOx2 pEC50 (converted)

Molecule: CS(=O)(=O)NC1C(Cc2cccc(-c3ccccc3)c2)N(C(=O)C2CC(F)(F)C2)CC12CC2 (racemic)
EC50: 100 to 1000 nM
--
Molecule: O=C(N1CC2(CC2)C(NS(=O)(=O)CF)C1Cc1cccc(-c2ccccc2)c1F)C1(O)CCC1 (racemic)
EC50: 0.0794 to 1 nM
--
Molecule: CO[C@@H](C)CNC(=O)N1CC2(CC2)[C@H](NS(C)(=O)=O)[C@@H]1Cc1cccc(-c2ccccc2)c1F
EC50: 1 to 10 nM

Challenge: If you can, please state the reported EC50 value of O=C(NCC1COC1)N1CC2(CC2)[C@H](NS(=O)(=O)CF)[C@@H]1Cc1cccc(-c2ccccc2)c1F .
Response given: 1 to 10 nM

Challenge: If you can, please state the reported EC50 value of O=C([C@H]1CCO1)N1CC2(CC2)[C@H](NS(=O)(=O)N2CCCC2)[C@@H]1Cc1cccc(-c2ccccc2)c1 .
Response given: 10 to 100 nM

Challenge: If you can, please state the reported EC50 value of O=C([C@H]1CCO1)N1CC2(CC2)[C@H](NS(=O)(=O)C(F)(F)F)[C@@H]1Cc1cccc(-c2ccccc2)c1F .
Response given: 10 to 100 nM

Challenge: If you can, please state the reported EC50 value of COCCNC(=O)N1CC2(CC2)[C@H](NS(=O)(=O)CF)[C@@H]1Cc1cccc(-c2ccccc2)c1F .
Response given: 10 to 100 nM

---

Experimental system: human orexin type 2 receptor (hOX2R) (Homo sapiens, UniProt O43614)
Construct: expressed in transfected cells
Experiment notes: Measurement of orexin type 2 receptor agonist activity (FLIPR calcium fluorescence)
Format: cell-based
Run conditions: CHO, CHO cells expressing hOX2R, FLIPR calcium fluorescence; read-out: hOx2 Emax (%)
Description: The biological activity of the compounds of the present disclosure may be determined in cells stably expressing either orexin type 2 or orexin type 1 receptor. […] The agonist activity of a compound of the present disclosure may be determined by fluorescence value. Stable cell line generation. Measurement of orexin type 2 receptor agonist activity. […] As used herein, E. indicates the value at 10 μM concentration when orexin A is converted to a full agonist (maximum value of agonist activity. 100%).
Reported Emax by item:

Molecule: COC1(C(=O)N2CC3(CC3)[C@H](NS(C)(=O)=O)[C@@H]2Cc2cccc(-c3ccccc3)c2)CC1
Emax: 80 to 90%

Molecule: CCCS(=O)(=O)N[C@@H]1[C@H](Cc2cccc(-c3ccccc3)c2)N(C(=O)[C@H]2CCO2)CC12CC2
Emax: 90 to 100%

Molecule: CO[C@H](C)CNC(=O)N1CC2(CC2)[C@H](NS(C)(=O)=O)[C@@H]1Cc1cccc(-c2ccccc2)c1F
Emax: 90 to 100%

Molecule: CCNC(=O)N1CC2(CC2)C(NS(C)(=O)=O)C1Cc1cccc(-c2ccccc2)c1F (racemic)
Emax: 90 to 100%

Challenge: If you can, please state the reported Emax value of COC1CN(C(=O)N2CC3(CC3)[C@H](NS(=O)(=O)CF)[C@@H]2Cc2cccc(-c3cccc(F)c3)c2F)C1 .
Response given: 90 to 100%

Challenge: If you can, please state the reported Emax value of O=C(NCC1(F)CC1)N1CC2(CC2)[C@H](NS(=O)(=O)CF)[C@@H]1Cc1cccc(-c2ccccc2)c1F .
Response given: 90 to 100%

Challenge: If you can, please state the reported Emax value of CN(C)S(=O)(=O)N[C@@H]1[C@H](Cc2cc(F)cc(-c3ccccc3)c2F)N(C(=O)[C@H](O)CF)CC12CC2 .
Response given: 90 to 100%

---

Reported EC50 by item:
Experimental system: human orexin type 2 receptor (hOX2R) (Homo sapiens, UniProt O43614)
Construct: expressed in transfected cells
Experiment notes: Measurement of orexin type 2 receptor agonist activity (FLIPR calcium fluorescence)
Type: cell-based
Run conditions: CHO cells expressing hOX2R, FLIPR calcium fluorescence; read-out: hOx2 pEC50 (converted)

The cases that follow already have their EC50 on record.
Compound: N#CC1(C(=O)N2CC3(CC3)[C@H](NS(=O)(=O)C(F)F)[C@@H]2Cc2cccc(-c3ccccc3)c2F)CCC1
Experimental system: human orexin type 2 receptor (hOX2R) (Homo sapiens, UniProt O43614)
Recorded value: 1 to 10 nM
--
Compound: CCNC(=O)N1CC2(CC2)[C@H](NS(C)(=O)=O)[C@@H]1Cc1cccc(-c2ccccc2)c1 (racemic)
Experimental system: human orexin type 2 receptor (hOX2R) (Homo sapiens, UniProt O43614)
Recorded value: 1 to 10 nM
--
Compound: CS(=O)(=O)N[C@@H]1[C@H](Cc2cc(F)cc(-c3ccccc3F)c2F)N(C(=O)[C@H]2CCO2)CC12CC2
Experimental system: human orexin type 2 receptor (hOX2R) (Homo sapiens, UniProt O43614)
Recorded value: 10 to 100 nM
--
Compound: CS(=O)(=O)NC1C(Cc2cccc(-c3ccccc3)c2)N(C(=O)C(F)(F)F)CC12CC2 (racemic)
Experimental system: human orexin type 2 receptor (hOX2R) (Homo sapiens, UniProt O43614)
Recorded value: 100 to 1000 nM
--
Compound: CC(C)(O)C(=O)N1CC2(CC2)[C@H](NS(C)(=O)=O)[C@@H]1Cc1cccc(-c2ccccc2F)c1F
Experimental system: human orexin type 2 receptor (hOX2R) (Homo sapiens, UniProt O43614)
Recorded value: 10 to 100 nM
--
Compound: CS(=O)(=O)N[C@@H]1[C@H](Cc2cccc(-c3ccccc3)c2F)N(C(=O)NCC(F)F)CC12CC2
Experimental system: human orexin type 2 receptor (hOX2R) (Homo sapiens, UniProt O43614)
Recorded value: 0.0794 to 1 nM

Challenge: If you can, please state the reported EC50 value of COC1(CNC(=O)N2CC3(CC3)[C@H](NS(C)(=O)=O)[C@@H]2Cc2cccc(-c3ccccc3)c2F)CC1 .
Response given: 0.0794 to 1 nM

Challenge: If you can, please state the reported EC50 value of O=C(NCC1(F)CC1)N1CC2(CC2)[C@H](NS(=O)(=O)CF)[C@@H]1Cc1cccc(-c2ccccc2)c1F .
Response given: 0.0794 to 1 nM

Challenge: If you can, please state the reported EC50 value of CS(=O)(=O)N[C@H]1[C@@H](Cc2cccc(-c3ccccc3)c2F)N(C(=O)[C@@H]2CCO2)CC12CC2 .
Response given: > 1000 nM

Challenge: If you can, please state the reported EC50 value of CC(C)(O)C(=O)N1CC2(CC2)[C@H](NS(=O)(=O)CF)[C@@H]1Cc1cccc(-c2cc(F)cc(F)c2)c1F .
Response given: 1 to 10 nM

Challenge: If you can, please state the reported EC50 value of O=C(NCC(F)F)N1CC2(CC2)[C@H](NS(=O)(=O)C(F)F)[C@@H]1Cc1cccc(-c2ccccc2)c1F .
Response given: 1 to 10 nM
